Test: Selectivity index, ratio of CC50 for human CEM-T4 cells to EC50 for HIV1 infected in human CEM-T4 cells
Type: toxicity, cell-based
Settings: read-out: Ratio CC50/EC50
Reported selectivity ratio is given for each of the following compounds.

Recorded selectivity ratio, per entry:
compound="Cc1cn([C@H]2C[C@H](N=[N+]=[N-])[C@@H](COP(=O)(Nc3ccncc3)Oc3cccnc3)O2)c(=O)[nH]c1=O (some centres undefined)" property_label="selectivity ratio" recorded_result="> 250"
compound="Cc1cn([C@H]2C[C@H](N=[N+]=[N-])[C@@H](COP(=O)(Nc3ccccc3)Oc3ccccc3)O2)c(=O)[nH]c1=O (some centres undefined)" property_label="selectivity ratio" recorded_result="> 890"
compound="Cc1cn([C@H]2C[C@H](N=[N+]=[N-])[C@@H](COP(=O)(Nc3ccccc3)Oc3cccnc3)O2)c(=O)[nH]c1=O (some centres undefined)" property_label="selectivity ratio" recorded_result="> 30000"

Okay, next one:
Q: Please report selectivity ratio for the following compound: Cc1cn([C@H]2C[C@H](N=[N+]=[N-])[C@@H](COP(=O)(Nc3cccnc3)Oc3ccccn3)O2)c(=O)[nH]c1=O (some centres undefined)
Result: > 3300
